experiment: melting temperature; fluorescence melt of hairpins on a sequencing array, two-state fit, raised by 9.35 °C to match UV melts; conditions: sodium 0.088 M
test_readout: Tm (°C)
Please reply with the bare figure in °C and do not write the unit itself.

// lookup Tm for GCTTGCGAAAGCATAGC ((((((....))).)))
55.3

Record: GTCGATGGAAACATCGGC (.(((((....))))).)
56.1

Follow-up item: GATCAGGCCTCTGATC ((((((....))))))
52.1

Same lookup for GGTCCGGGAAACCGAACC (((.(((....))).))) , please.
46.8

Entry to check: GCGTTGGGAAACTAACGC (((((.(....).)))))
55.5

Now the same for GGGCATCGAAAGATACCC (((.(((....))).)))
49.5

Also GATCTCGAGGAGATC ((((((...)))))) ?
52.8

How about this sequence: GATCCTACGGAGGATC ((((((....))))))
50.9

Queued: GCATTTCGAAAGAATGC (((.(((....))))))
45.5

Param item: GTAGGGCGAAAGCCTTAC (((.(((....))).)))
50.4

// same read-out, input: GCACAAACGAAAGTTTGC (((..(((....))))))
39.7

Now consider GAGTGCGAAAGCAGACTC ((((((....)))..))) .
44.4

Also, GATCGGCGAAAGCCATC (((.(((....)))))) please.
35.7

Next up: CGCCACCGGAAACGGGCG (((..(((....))))))
49.3

Check GACGGCGGAAACACCGCC (.(((.(....).))).) too.
44.1

What do you have for GATCCTGAGTAGGATC ((((((....)))))) ?
50.9

Next up: GCCGTGCGAAAGCTCCGC ((.(.((....)).).))
40.4

What do you have for GCTGCCGGAAACAGCAGC (((((.(....).))))) ?
53.8

Please do the same for GATGCCGAAAGGCCGATC ((((((....)))..))) as well.
25.2

Item: GCTCGATCGAAAGATAGC (((..(((....))))))
28.1

Request: GAGGACGAAAGTCCCCTC ((((((....)))..)))
42.7

Now consider GGATCCGGAAACAGATCC (((((.(....).))))) .
41.6

// same read-out, input: GTACTTCCGAAAGGATAC (((..(((....))))))
24.9

Try the sequence GTCTTTGAAAAAAGAC ((((((....))))))
48

For GATCTGTACCAGATC ((((((...)))))) then?
49.3

====

assay: folding enthalpy; higher = less favourable; fluorescence melt of hairpins on a sequencing array, two-state fit; details: sodium 0.088 M
test_readout: folding enthalpy (kcal/mol)
Give a bare numeral; the unit kcal/mol is implied.

Query: folding enthalpy; subject: GGAATGGGAAACTATTCC (((((.(....).)))))
-25.9

Then this sequence: GGATGCGAAAGCATATCC ((((((....)))..)))
-14.9

And GATTGCGAAAGCAGAATC ((((((....)))..))) ?
-13.8

What do you get for GTGGGCGGAAACACCCAC (((((.(....).))))) ?
-43.3

Please give the result for GGCGTAGGAAACCACGCC (((((.(....).))))) too.
-53.2

Another sequence to check: GAAGAGGGAAACCTCTCC (.(((((....))))).)
-12.5

Please give the result for GATCGTTTGCACGATC ((((((....)))))) too.
-27

Can you handle GTACCCGAAAGGGCTAC ((((((....))).))) next?
-15.3

What do you get for GATCAACAGTTTGATC ((((((....)))))) ?
-31.2

Repeat for the following sequence: GGCCATGGAAACATAGCC (((.(((....))).)))
-31.5

Also need GATCAGAGACTGATC ((((((...)))))) , thanks.
-31.4

Again, but for GTCGGTGGAAACATCGAC ((((.((....)).))))
-45.1

// same read-out, input: GCCTGGGGAAACTCAGGC (((((.(....).)))))
-36

Further, for GCTAGCGGAAACGTTGGC ((.(.((....)).).)) ?
-24.6

Please give the result for GACGGGCGAAAGCCAGTC (((.(((....))).))) too.
-21.7

Now the sequence GGGGTGGGAAACCGCCCC ((((.((....)).))))
-38.1

Repeat for the following sequence: GAGGTTGGAAACGACTTC ((.((.(....).)).))
-24.9

# repeat for GGAACCGAAAGGTGGTCC ((((((....)))..)))
-14.7

What about this sequence? GATCCCCGTCGGGATC ((((((....))))))
-32.4

Try the sequence GGAGCCGAAAGGCGTTCC ((((((....)))..)))
-10.1

Follow-up item: GCGAGGCTCGC ((((...))))
-28.5

Please give the result for GGAGGCGAAAGCCTGTCC ((((((....)))..))) too.
-8.31

Request: GAGCGCGAAAGCGAACTC ((((((....)))..)))
-15.2

One more sequence: GTATGCGAAAGCACCTAC ((((((....)))..)))
-5.96

And GTAACGGGAAACCGTTGC (.(((((....))))).) ?
-21.2

And for GTGAGCGGAAACGCTTGC (..((((....))))..) ?
-16.2

Now consider GCTCCGCGAAAGCAGGGC ((.(.((....)).).)) .
-16

Follow-up entry: TAACTGAAAAGTTA (((((....)))))
-9.74

Can you handle GCACGGCGAAAGCCCTGC (((.(((....))).))) next?
-26

Same question for GATCATGCCCATGATC ((((((....)))))) please.
-43

What about GGGCGCGAAAGCGTTCCC ((((((....)))..))) ?
-13.7

Please give the result for GCCTTCGAAAGAACCGGC ((((((....)))..))) too.
-19.4

Next sequence: GATCCGGTAGCGGATC ((((((....))))))
-31.3

Would you mind doing GTACTCGAAAGAGGTAC ((((((....))).))) as well?
-21.1

What would you report for GCCCCCGAAAGGGAGGGC ((((((....)))..))) ?
-30

Okay, and GTGAGCGAAAGCTGTCAC ((((((....)))..))) ?
-14.3

Record: GCTTACGGAAACGTAAAC (.(((((....))))).)
-17.9

Then GTATCGGGAAACCGATGC (.(((((....))))).) ?
-22.2

Now consider GCGGATTTCCGC ((((....)))) and answer again.
-22.4

Field entry: GCAGACGGAAACATCCGC ((.((.(....).)).))
-13.3

Now consider GCAAACGAAAGTTCTGC ((((((....))).))) and answer again.
-20.5

How about GTTACCGAAAGGTACAAC ((((((....)))..))) ?
-10.9

Please answer likewise for GATCACCAAAGTGATC ((((((....))))))
-50.8

Same lookup for GCGGGCTTCCGC ((((....)))) , please.
-21.2

Request: GCCGCCGAAAGGCAAGGC ((((((....)))..)))
-24.6

Follow-up entry: GATCCTATATAGGATC ((((((....))))))
-46.7

Next record, please: GCCCCCCGAAAGGGTGGC (((.(((....))).)))
-33.1

Again, but for GTAAGCCCGAAAGGGTAC (((..(((....))))))
-10.6

Similarly, GTCAACGAAAGTTTAGAC ((((((....)))..))) ?
-16.1

Try this sequence next: GGCAGGGGAAACCCCACC ((..(((....)))..))
-16.5
